Just for reference, PubChem BioAssay (NCI) is where these values come from.

- Test system: OVCAR-5 ovarian
- EXPERIMENT DESCRIPTION: NCI tumour cell line growth inhibition, 48 h
# binarize TGI: threshold 30 µM inclusive, high side Met, low side Not met

COMPOUND: CN1CCN(Cc2ccc(NC(=O)c3[nH]ncc3Nc3cc(OC4CCCC4)ncn3)cc2)CC1
CLASS: Not met
//
COMPOUND: CCN(CC)c1ccc2cc(-c3csc(-c4ccc(N(C)C)cc4)n3)c(=O)oc2c1
CLASS: Met
//
COMPOUND: CC(=O)Oc1ccc2c3c1[C@@H]1O[C@@H]1c1cccc(c1-3)[C@@H]1O[C@H]21
CLASS: Not met
//
COMPOUND: Cc1c(C=C(C#N)C#N)c(=O)n(C)c(=O)n1C
CLASS: Met
//
COMPOUND: N#Cc1c(Nc2ccccc2)[n+]([O-])c2ccc(Cl)cc2[n+]1[O-]
CLASS: Met
//
COMPOUND: CC1=C(C(=O)NCc2ccccc2)C(c2ccccc2O)C(C(=O)NCc2ccccc2)=C(C)N1
CLASS: Met
//
COMPOUND: COC(=O)C1=C(O)C(C(=O)OC)[C@@]2(O)[C@@H](C(=O)OC)C(c3ccccc3Cl)C[C@@H]1[C@@H]2C(=O)OC (some centres not stated)
CLASS: Met
//
COMPOUND: N#CC1C(=O)NC(=O)C(C#N)C1c1ccc(Cl)c(Cl)c1 (configuration not stated)
CLASS: Met
//
COMPOUND: CCOc1cc[n+](C(=C=[N-])C#N)cc1
CLASS: Met
//
COMPOUND: CCN1C(=O)N(CC)C2C1NN=c1s/c(=C\c3cnc(C)n3C)c(=O)n12 (configuration not stated)
CLASS: Met
//
COMPOUND: CC(C)C(=O)CP(=O)(O)O
CLASS: Met
//
COMPOUND: COC(=O)[C@]1(C)CC[C@]2(C)CC[C@]3(C)C(=CC(=O)[C@@H]4[C@@]5(C)CCC(=O)NC(C)(C)[C@@H]5CC[C@]43C)[C@@H]2C1
CLASS: Met

* * *

- Test system: OVCAR-3 ovarian
- EXPERIMENT DESCRIPTION: NCI tumour cell line growth inhibition, 48 h

COMPOUND: Cc1ccccc1NC(=O)CC(=O)n1nc(-c2ccccc2)c(N=Nc2ccc([N+](=O)[O-])cc2)c1-c1ccccc1
RELATION SIGN: =
TGI / µM: 37.3
//
COMPOUND: C=C1C(OCCO)OC2O[C@]3(C)CCC4[C@H](C)CCC1C24OO3 (stereo partly drawn)
RELATION SIGN: >
TGI / µM: 100
//
COMPOUND: CCCNC(=O)Nc1ccc2c(c1)Cc1cc(N(CCCl)CCCl)ccc1-2
RELATION SIGN: =
TGI / µM: 54.4

* * *

- Tested on: SK-MEL-5 melanoma
- EXPERIMENT DESCRIPTION: NCI tumour cell line growth inhibition, 48 h
METRIC NAME: TGI

COMPOUND: C(=NCCN=Cc1cccc2ccccc12)c1cccc2ccccc12
OBS VALUE: > 100 µM
--
COMPOUND: N#CC(CC(=O)O)=C(c1ccccc1)c1ccccc1
OBS VALUE: > 100 µM
--
COMPOUND: CC(=O)Oc1cc2c(n(C)c1=O)CCC2
OBS VALUE: > 100 µM
--
COMPOUND: O=C(NC(Cc1ccccc1)P(=O)(O)c1ccccc1)OCc1ccccc1 (stereo not given)
OBS VALUE: > 100 µM
--
COMPOUND: Cc1ccc(NC(=O)CC2C(=O)Nc3ccccc3S2(=O)=O)cc1C (stereo not given)
OBS VALUE: > 100 µM
--
COMPOUND: CN(C)c1ccc(/C=N/NC(=O)c2cnc3ccccc3c2)cc1
OBS VALUE: > 100 µM
--
COMPOUND: C[C@H](CCCOS(C)(=O)=O)[C@H]1CC[C@H]2[C@@H]3CC[C@@H]4C[C@H](OS(C)(=O)=O)CC[C@]4(C)[C@H]3CC[C@]12C
OBS VALUE: > 2500 µM
--
COMPOUND: CCCCCCC(=O)CC(=O)C(=O)Nc1ccccc1C
OBS VALUE: > 100 µM
--
COMPOUND: CC(=O)N1CCN(C=S)CC1
OBS VALUE: > 100 µM
--
COMPOUND: NC(=O)N/N=C/c1ccccc1O
OBS VALUE: > 100 µM
--
COMPOUND: COC(=O)c1c(OC(C)=O)ccc2c1c1cc3ccccc3c(OC(C)=O)c1n2C
OBS VALUE: 31.2 µM
--
COMPOUND: NC(N)=NC(N)=NCc1ccco1
OBS VALUE: > 1250 µM
--
COMPOUND: COc1ccc(/C=C2\CC3C4CC=C5C[C@@H](O)CC[C@]5(C)C4CC[C@]3(C)C2=O)cc1OC (stereo not given in full)
OBS VALUE: 21.9 µM
--
COMPOUND: C/C(CC(O)(C(F)(F)F)C(F)(F)F)=N/Nc1ccc([N+](=O)[O-])cc1[N+](=O)[O-]
OBS VALUE: 4 µM
--
COMPOUND: CC(C)[Si](OC1=CCC[C@H]2NC(=O)[C@@H](Cc3ccc([N+](=O)[O-])cc3)[C@@]12C)(C(C)C)C(C)C
OBS VALUE: 5.58 µM
--
COMPOUND: N#CC12CC3(CCC1CCC1(C2)OCCO1)OCCO3 (stereo not given)
OBS VALUE: > 100 µM
--
COMPOUND: COc1ccc(-c2cc(-c3ccccc3)nc(N)n2)c(O)c1
OBS VALUE: > 100 µM
--
COMPOUND: CC1(C)N=C(N)N=C(N)N1CCCCc1ccccc1
OBS VALUE: 12.5 µM
--
COMPOUND: Nc1nc(Cl)c2ncn(Cc3ccc(-c4ccc(CCl)cc4)cc3)c2n1
OBS VALUE: 18.9 µM
--
COMPOUND: C=C1CC(CC(=O)C(C)CC2CC(=C)C(=O)O2)OC1=O (stereo not given)
OBS VALUE: > 100 µM
--
COMPOUND: COc1cc(OC)c2c(c1Cl)O[C@]1(C2=O)C(OCc2ccccc2)=CC(=O)C[C@H]1C
OBS VALUE: 11.8 µM
--
COMPOUND: C[C@H](c1ccc(Cl)cc1[N+](=O)[O-])N1C(=O)c2cc(I)ccc2NC(=O)[C@H]1c1ccc(Cl)cc1
OBS VALUE: > 100 µM
--
COMPOUND: Cc1ccc(C(=O)N/N=C(\N=Nc2ccccc2)c2ccc(N(CCC#N)CCC#N)cc2C)cc1
OBS VALUE: > 100 µM
--
COMPOUND: CC(C)Cn1cnc2c(SCc3ccccn3)nc(N)nc21
OBS VALUE: > 100 µM
--
COMPOUND: CCC(=O)Oc1ccc(/C=N/NC(N)=S)nc1
OBS VALUE: 77.2 µM
